experiment: Physical stability test (XRPD) of crystal forms under different placement conditions; type: physicochemical; conditions: C, D, H changed after one week; A, B, I did not change after one month
recordedMetric: Physical stability, conclusion from Table 7

For orientation, consider the following solved cases.
O=C(O)CNC(=O)c1ncc(C#CCOc2ccc(Cl)cc2)cc1O [crystal form B]: good physical stability
O=C(O)CNC(=O)c1ncc(C#CCOc2ccc(Cl)cc2)cc1O [crystal form D]: poor physical stability
O=C(O)CNC(=O)c1ncc(C#CCOc2ccc(Cl)cc2)cc1O [crystal form H]: poor physical stability
O=C(O)CNC(=O)c1ncc(C#CCOc2ccc(Cl)cc2)cc1O [crystal form I]: good physical stability

QUERY: Could you share which Physical stability, conclusion from Table 7 value was measured for O=C(O)CNC(=O)c1ncc(C#CCOc2ccc(Cl)cc2)cc1O [crystal form C] ?
RESULT: poor physical stability

QUERY: Thanks! And O=C(O)CNC(=O)c1ncc(C#CCOc2ccc(Cl)cc2)cc1O [crystal form A] ?
RESULT: good physical stability
